Answer each item with its documented EC50.
Molecular target: P2Y purinoceptor 2 (Homo sapiens, UniProt P41231)
Sequence (P41231 whole entry): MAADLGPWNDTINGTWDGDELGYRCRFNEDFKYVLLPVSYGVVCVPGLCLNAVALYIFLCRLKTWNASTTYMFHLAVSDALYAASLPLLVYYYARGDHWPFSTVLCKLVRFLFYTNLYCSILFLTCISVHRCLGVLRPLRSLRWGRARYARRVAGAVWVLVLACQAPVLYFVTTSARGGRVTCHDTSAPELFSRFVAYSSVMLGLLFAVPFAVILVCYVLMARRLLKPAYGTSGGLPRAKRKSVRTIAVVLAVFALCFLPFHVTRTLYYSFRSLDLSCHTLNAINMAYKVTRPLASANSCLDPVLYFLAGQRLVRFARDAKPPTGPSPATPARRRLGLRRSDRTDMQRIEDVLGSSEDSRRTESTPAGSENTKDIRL
Assay: Agonist activity at human P2Y2 receptor expressed in 1321N1 cells assessed as IP accumulation by SPA
Value expressed in nM; do not type the unit.

Endpoint output: EC50 of O=c1[nH]c(=O)n([C@@H]2O[C@H](COP(=O)(O)OP(=O)(O)C(Cl)(Cl)P(=O)(O)O)[C@@H](O)[C@H]2O)cc1Br . Value? 354

Endpoint output: EC50 of O=c1[nH]c(=O)n([C@@H]2O[C@H](COP(=O)(O)OP(=O)(O)OP(=O)(O)O)[C@@H](O)[C@H]2O)cc1Br . Value? 347

Endpoint output: EC50 of O=c1[nH]c(=O)n([C@@H]2O[C@H](COP(=O)(O)OP(=O)(O)O)[C@@H](O)[C@H]2O)cc1Br . Value? 3670

====

Answer each item with its documented Activity.
Biological target: P2Y purinoceptor 2 (Homo sapiens)
Assay: Agonist activity at human P2Y2 receptor expressed in 1321N1 cells assessed as IP accumulation by SPA at 100 uM
Format: functional, cell-based
Mention the unit after the number when you answer.

Item CCCc1cc(=O)n([C@@H]2O[C@H](COP(=O)(O)OP(=O)(O)O)[C@@H](O)[C@H]2O)c(=O)[nH]1 with P2Y purinoceptor 2 (Homo sapiens) - Activity? 28%

Item Cc1cc(=O)n([C@@H]2O[C@H](COP(=O)(O)OP(=O)(O)O)[C@@H](O)[C@H]2O)c(=O)[nH]1 with P2Y purinoceptor 2 (Homo sapiens) - Activity? 69%

Item O=C(Cn1c(=O)ccn([C@@H]2O[C@H](COP(=O)(O)OP(=O)(O)OP(=O)(O)O)[C@@H](O)[C@H]2OP(=O)(O)O)c1=O)c1ccccc1 with P2Y purinoceptor 2 (Homo sapiens) - Activity? 107%

====

Answer each item with its documented EC50.
Molecular target: P2Y purinoceptor 2 (Homo sapiens)
Assay: Agonist activity at human P2Y2 receptor expressed in 1321N1 cells assessed as IP accumulation by SPA

Endpoint output: EC50 of CCCc1cc(=O)n([C@@H]2O[C@H](COP(=O)(O)OP(=O)(O)OP(=O)(O)O)[C@@H](O)[C@H]2O)c(=O)[nH]1 . Value? > 1000 nM

Endpoint output: EC50 of Cc1cc(=O)n([C@@H]2O[C@H](COP(=O)(O)O)[C@@H](O)[C@H]2O)c(=O)[nH]1 . Value? > 100000 nM

Endpoint output: EC50 of O=c1[nH]c(=O)n([C@@H]2O[C@H](COP(=O)(O)O)[C@@H](O)[C@H]2O)cc1Br . Value? > 1000 nM
